protocol description: physchem
particulars: pH 4.5, aqueous buffer, kinetic from dmso stock, Solubility (pH 4.5)
Record form. Attribute: solubility at 24 h. Fill in for each entry.
Provide the reading as a plain figure in µg/mL.

Q: Which solubility at 24 h value is on record for CO[C@@H]1CN(c2cccc(-c3cccc(C)c3OCc3ccc4c(c3C)CCN(C3CCOCC3)C4)n2)CC[C@@H]1C(=O)O ?
A: 120

Q: Which solubility at 24 h value is on record for Cc1cc(COc2c(C)cccc2-c2csc(N3C[C@@H]4C[C@]4(C(=O)O)C3)n2)cc2c1CN(C1COC1)CC2 ?
A: 58

Q: Which solubility at 24 h value is on record for CO[C@H]1CN(c2cccc(-c3cccc(C)c3OCc3ccc4c(c3C)CCN(C3COC3)CC4)n2)CC[C@@H]1C(=O)O ?
A: 82.4
